Organism: Homo sapiens
assay explanation: Selectivity index, ratio of pIC50 of BRD4 BD1 (unknown origin) to pIC50 of BRD4 BD2 (unknown origin)
recorded endpoint: Ratio pIC50
Respond with the number and no other words.

Sample records with Ratio pIC50:
1. Cn1cc(-c2cc(C(=O)NCCC[C@@]3(F)CCCNC3)cc(Cc3ccccc3)n2)nn1 :: 500
2. CCNC(=O)c1cc(Cc2ccccc2)nc(-c2cn(C)nn2)c1 :: 170

Fill in the blank: the reported Ratio pIC50 of Cn1cc(-c2cc(C(=O)NCC[C@]3(F)CCCNC3)cc(Cc3ccccc3)n2)nn1 is ____.
250

Fill in the blank: the reported Ratio pIC50 of Cn1cc(-c2cc(C(=O)NC3CCOCC3)cc(Cc3ccccc3)n2)nn1 is ____.
160

Fill in the blank: the reported Ratio pIC50 of Cn1cc(-c2cc(C(=O)NCCCC3CCNCC3)cc(Cc3ccccc3)n2)nn1 is ____.
400

Fill in the blank: the reported Ratio pIC50 of CCNC(=O)c1cc(Cc2cccc(F)c2)nc(-c2cn(C)nn2)c1 is ____.
65

Fill in the blank: the reported Ratio pIC50 of CCNC(=O)c1ccc(OCc2ccccn2)c(-c2cn(C)nn2)c1 is ____.
125

Fill in the blank: the reported Ratio pIC50 of Cc1cn(-c2ccccc2OCc2ccccc2)nn1 is ____.
2

Cited source for all entries: ChEMBL document CHEMBL4834404
